Experiment: in vivo
Settings: male, beagle, dog, iv, 1 mg/kg
quantity_kind: Cmax (ng/mL)
All answers are understood in ng/mL, so give the number only.

For COC[C@@H](NC(=O)C1CCCC(F)(F)C1)C(=O)N[C@H](Cc1ccccc1)C(=O)C(=O)NCc1nccs1 (stereo partly shown) the compound record lists Cmax as 1270

----------
I'd be grateful if you could share measured remaining at 5 min for these entries.
Assay: in vitro
Type: in vitro ADME
Settings: human, microsomes; HLM 0.5 mg/mL, 1 μM, 5 min, Mean; read-out: Percent Remaining (%) 5 min
All answers are understood in %, so give the number only.

For COC[C@@H](NC(=O)C1CCCC(F)(F)C1)C(=O)N[C@H](Cc1ccccc1)C(=O)C(=O)NCc1nccs1 (stereo partly shown) [SY110] the compound record lists remaining at 5 min as 80.7

For C[C@@H](NC(=O)C1CCCC(F)(F)C1)C(=O)N[C@H](Cc1ccccc1)C(=O)C(=O)NCc1nccs1 (stereo partly shown) [3s] the compound record lists remaining at 5 min as 81.7

For COC[C@@H](NC(=O)CC1CC(F)(F)C1)C(=O)N[C@H](Cc1ccccc1)C(=O)C(=O)NCc1nccs1 [3x] the compound record lists remaining at 5 min as 91.1

For C[C@@H](NC(=O)C1CCC(F)(F)C1)C(=O)N[C@H](Cc1ccccc1)C(=O)C(=O)NCc1nccs1 (stereo partly shown) [3t] the compound record lists remaining at 5 min as 89.1
